# protocol: small-molecule microarray binders of probe aWnt5a, primary screen, biochemical, biotinylated probe, 635/667 nm fluorescence (AID 1113);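 note: score merges 667 nm fluorescence intensity with signal-to-noise per printed feature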
# testConditions: higher = more signal
Quick rule for you: composite z-score at -0.1 or higher means true (1), lower means false (0).

{"columns": ["molecule", "className"],
 "data": [
  ["CC(C)[Si](OCC[C@H]1O[C@]2(C(=O)N(Cc3ccccc3)c3ccccc32)[C@@H](C)[C@@H]1[Si](C)(C)O)(C(C)C)C(C)C", "false (0)"],
  ["CN1C(=O)C2C=CC(C(O)c3ccc(N(C)C)cc3)N(Nc3ccc([N+](=O)[O-])cc3[N+](=O)[O-])C2C1=O (stereo unspecified)", "true (1)"],
  ["C=CCOC(=O)[C@@H]1[C@H]2C(=O)O[C@H](c3ccccc3)[C@H](c3ccccc3)N2[C@H](c2ccc(OCCOC(=O)[C@H]3C[C@H]4C(=O)N[C@@H](CCCCNC(C)=O)C(=O)N4[C@H]3c3ccc(O)cc3)cc2)[C@@]12C(=O)Nc1ccc(I)cc12", "false (0)"],
  ["CCCC/C=C/[C@H]([C@@H](O)Cc1ccccc1)N(CC#Cc1ccccc1)Cc1ccccc1Br", "false (0)"],
  ["CCCCCCc1nc(C2CC2)c(C)c2c1[Si](C(C)C)(C(C)C)OC2", "false (0)"],
  ["CCOC(=O)C[C@H]1[C@H](OC(=O)c2cc3ccccc3oc2=O)[C@@H](NC(=O)C2CCCCC2)c2cc(OCCCO)ccc2N1C(=O)c1ccc2ccccc2n1", "true (1)"]
]}

Attribution: PubChem BioAssay
